Target: human ether-à-go-go-related gene (hERG) potassium channel (human, UniProt Q12809);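 also: peak tail current of the secondary pulse compared with the same well before compound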
Sequence (Q12809 whole entry, looked up): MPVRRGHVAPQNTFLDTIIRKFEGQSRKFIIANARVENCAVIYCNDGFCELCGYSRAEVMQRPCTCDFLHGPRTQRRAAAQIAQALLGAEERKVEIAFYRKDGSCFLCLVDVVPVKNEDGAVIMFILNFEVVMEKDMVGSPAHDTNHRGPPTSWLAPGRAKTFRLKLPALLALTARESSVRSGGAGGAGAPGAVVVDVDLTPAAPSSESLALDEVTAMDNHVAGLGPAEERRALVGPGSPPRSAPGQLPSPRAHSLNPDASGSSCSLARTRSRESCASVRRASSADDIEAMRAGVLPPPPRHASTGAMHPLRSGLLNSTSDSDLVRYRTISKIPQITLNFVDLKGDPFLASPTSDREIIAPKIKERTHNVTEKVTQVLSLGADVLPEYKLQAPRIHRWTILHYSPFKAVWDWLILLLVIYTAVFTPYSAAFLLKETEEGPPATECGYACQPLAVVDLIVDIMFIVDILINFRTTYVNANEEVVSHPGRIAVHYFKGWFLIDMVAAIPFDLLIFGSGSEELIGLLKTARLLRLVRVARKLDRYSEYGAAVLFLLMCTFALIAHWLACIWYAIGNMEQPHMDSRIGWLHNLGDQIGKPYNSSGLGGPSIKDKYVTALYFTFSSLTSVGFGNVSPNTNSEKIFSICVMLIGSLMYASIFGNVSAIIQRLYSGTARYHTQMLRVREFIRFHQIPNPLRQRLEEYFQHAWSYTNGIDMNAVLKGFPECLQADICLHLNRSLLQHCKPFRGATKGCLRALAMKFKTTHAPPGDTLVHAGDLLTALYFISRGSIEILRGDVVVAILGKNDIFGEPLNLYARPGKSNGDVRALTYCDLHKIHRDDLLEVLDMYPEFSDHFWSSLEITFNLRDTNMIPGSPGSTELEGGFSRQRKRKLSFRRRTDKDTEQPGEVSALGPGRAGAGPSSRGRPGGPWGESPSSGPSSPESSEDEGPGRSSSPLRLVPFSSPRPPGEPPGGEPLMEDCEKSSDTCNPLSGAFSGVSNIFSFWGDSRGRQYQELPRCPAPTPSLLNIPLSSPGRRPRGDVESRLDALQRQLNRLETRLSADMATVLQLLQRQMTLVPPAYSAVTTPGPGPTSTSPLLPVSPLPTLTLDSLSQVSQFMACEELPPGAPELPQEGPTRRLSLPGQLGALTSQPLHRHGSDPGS
Test: primary screen, population patch clamp on CHO cells stably expressing hERG; higher = less effect of the substance
Out of some 310,000 compounds screened, about 14,000 (4.5%) showed an effect of 50% or more. Effects have a minus sign here. This excerpt belongs to a sample that is enriched for strong results.
property name: hERG current change (%, negative = inhibition) at 10uM (%)
# number only, unit % dropped from output

# return hERG current change (%, negative = inhibition) at 10uM for CN(C(=O)c1ccno1)c1nnc(-c2cnccn2)s1 , test system: human ether-à-go-go-related gene (hERG) potassium channel (human, UniProt Q12809) 6.99

# return hERG current change (%, negative = inhibition) at 10uM for Cc1ccccc1NC(=O)c1cccc(Cn2cc(Br)c([N+](=O)[O-])n2)c1 , test system: human ether-à-go-go-related gene (hERG) potassium channel (human, UniProt Q12809) -3.63

# return hERG current change (%, negative = inhibition) at 10uM for COc1ccc(OC)c(NC(=O)c2cccc(Cn3cc(Br)c([N+](=O)[O-])n3)c2)c1 , test system: human ether-à-go-go-related gene (hERG) potassium channel (human, UniProt Q12809) -13.9

---
# return hERG current change (%, negative = inhibition) at 10uM for CCOC(=O)c1cc(CC)sc1NC(=O)C1CC1 , test system: human ether-à-go-go-related gene (hERG) potassium channel (human, UniProt Q12809) -7.16

# return hERG current change (%, negative = inhibition) at 10uM for NC(=S)Cc1ccc(Cl)cc1Cl , test system: human ether-à-go-go-related gene (hERG) potassium channel (human, UniProt Q12809) 18.8

# return hERG current change (%, negative = inhibition) at 10uM for COc1ccc(-c2cc(N3C(=O)Nc4ccccc4N3O)n[nH]2)cc1OC , test system: human ether-à-go-go-related gene (hERG) potassium channel (human, UniProt Q12809) 3.84

====

Molecular target: human ether-à-go-go-related gene (hERG) potassium channel (human);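 also: peak tail current of the secondary pulse compared with the same well before compound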
Experiment: primary screen, population patch clamp on CHO cells stably expressing hERG; higher = less effect of the substance
Among all 310,000 compounds or so, about 14,000 (4.5%) showed an effect of 50% or more. Effects have a minus sign here. The sample holds strong results, similar compounds and a random draw of the others, so the mix is not that of the screen.
property name: hERG current change (%, negative = inhibition) at 10uM (%)
# number only, unit % dropped from output

Example cases with answers are listed next.
Supply reported hERG current change (%, negative = inhibition) at 10uM belonging to this molecule: Cc1nn(-c2ccccc2)c(C)c1/C=N/NC(=O)c1cc(C(C)(C)C)[nH]n1 -9.72

Supply reported hERG current change (%, negative = inhibition) at 10uM belonging to this molecule: Cc1ccc(NC(=O)c2cccs2)cc1S(=O)(=O)Nc1cccc(Cl)c1 8.25

Supply reported hERG current change (%, negative = inhibition) at 10uM belonging to this molecule: CCN(CC)S(=O)(=O)c1ccc(OC)c(NC(=O)CSc2cc(C)ccc2C)c1 -13.3

Supply reported hERG current change (%, negative = inhibition) at 10uM belonging to this molecule: O=C(O)C1CCN(C(=O)OCc2ccccc2)CC1 13.8

Supply reported hERG current change (%, negative = inhibition) at 10uM belonging to this molecule: Cc1ccc(S(=O)(=O)N2CCOCC2)cc1NC(=O)C(c1ccc(Cl)cc1)C(C)C (centres unmarked) 1.8

---
Supply reported hERG current change (%, negative = inhibition) at 10uM belonging to this molecule: Cc1ccc(NC(=O)CS(=O)(=O)c2c[nH]c3ccccc23)c(C)c1 11.9

Supply reported hERG current change (%, negative = inhibition) at 10uM belonging to this molecule: CC1CC(C)CN(C(=O)CSc2nc(Cc3cccs3)nc3ccccc23)C1 (centres unmarked) -13

Supply reported hERG current change (%, negative = inhibition) at 10uM belonging to this molecule: Cc1ccc(S(=O)(=O)N2CCOCC2)cc1NC(=O)CSc1ncccn1 -4.68

Supply reported hERG current change (%, negative = inhibition) at 10uM belonging to this molecule: O=C(Oc1ccccc1C(=S)N1CCOCC1)c1ccccc1 7.59

Supply reported hERG current change (%, negative = inhibition) at 10uM belonging to this molecule: O=c1c(-c2ccccc2)[n+]([O-])c2ccccc2n1O -9.6

Supply reported hERG current change (%, negative = inhibition) at 10uM belonging to this molecule: CC/C(=N\O)c1ccc(OC)c(OC)c1 21.1

====

Target: human ether-à-go-go-related gene (hERG) potassium channel (human, UniProt Q12809);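 also: peak tail current of the secondary pulse compared with the same well before compound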
Assay: primary screen, population patch clamp on CHO cells stably expressing hERG; higher = less effect of the substance
Hit rate of the full screen: of about 310,000 compounds, about 14,000 (4.5%) showed an effect of 50% or more. Effects have a minus sign here. This is one part of a sample in which strong results are shown more often than they occur.
Measured hERG current change (%, negative = inhibition) at 10uM, listed per entry.
# number only, unit % dropped from output

Supply reported hERG current change (%, negative = inhibition) at 10uM belonging to this compound: Cc1nn(-c2ccccc2)c(C)c1NC(=O)COc1ccc([N+](=O)[O-])cc1 -69.4

Supply reported hERG current change (%, negative = inhibition) at 10uM belonging to this compound: O=C(O)CC(NC(=O)COc1ccccc1)c1cccc([N+](=O)[O-])c1 (stereo not shown) 18.8

Supply reported hERG current change (%, negative = inhibition) at 10uM belonging to this compound: CCC(NC(=O)COc1ccc([N+](=O)[O-])cc1)c1ccccc1 (stereo not shown) -50.7

Next up:
Supply reported hERG current change (%, negative = inhibition) at 10uM belonging to this compound: CC(NC(=O)COc1ccc([N+](=O)[O-])cc1)c1ccccc1 (stereo not shown) -34.5

====

Target: human ether-à-go-go-related gene (hERG) potassium channel (human, UniProt Q12809);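 also: peak tail current of the secondary pulse compared with the same well before compound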
Experiment: primary screen, population patch clamp on CHO cells stably expressing hERG; higher = less effect of the substance
Hit rate of the full screen: of about 310,000 compounds, about 14,000 (4.5%) showed an effect of 50% or more. The effect is printed as a negative number. This excerpt belongs to a sample that is enriched for strong results.
property name: hERG current change (%, negative = inhibition) at 10uM (%)
# number only, unit % dropped from output

Supply reported hERG current change (%, negative = inhibition) at 10uM belonging to this compound: CCOC(=O)Cn1c(C)nc2c(C(=O)OCC)sc(C)c2c1=O -5

Supply reported hERG current change (%, negative = inhibition) at 10uM belonging to this compound: N#Cc1nc(Cc2cccc3ccccc23)oc1NCCCN1CCOCC1 -26.3

Supply reported hERG current change (%, negative = inhibition) at 10uM belonging to this compound: Br.CCOc1ccc(C2=CS/C(=C(\C#N)c3nnc4n3CCCCC4)N2CC)cc1 -47.3

Supply reported hERG current change (%, negative = inhibition) at 10uM belonging to this compound: C=CCn1c(=O)/c(=C/c2ccc(F)cc2)s/c1=C(\C#N)c1nnc2n1CCCCC2 -59.9

Supply reported hERG current change (%, negative = inhibition) at 10uM belonging to this compound: C/C=C(\C)c1nnc(NC(=O)OCC)s1 8.46

---
Supply reported hERG current change (%, negative = inhibition) at 10uM belonging to this compound: O=C(Cc1c(O)c2ccccc2[nH]c1=O)NC1CCCCCC1 3.69

Supply reported hERG current change (%, negative = inhibition) at 10uM belonging to this compound: CCOC(=O)c1cnn(C)c1NC(=O)c1ccc(Cl)cc1Cl -24.5

Supply reported hERG current change (%, negative = inhibition) at 10uM belonging to this compound: Cc1ccc(NC(C)C(=O)N/N=C/c2ccc([N+](=O)[O-])s2)cc1 (centres unmarked) 8.3

Supply reported hERG current change (%, negative = inhibition) at 10uM belonging to this compound: COc1cccc(Nc2nc(-c3cccs3)nc3ccccc23)c1 9.19

Supply reported hERG current change (%, negative = inhibition) at 10uM belonging to this compound: CCOC(=O)C1=C(COC(=O)c2cccs2)NC(=O)NC1C (centres unmarked) 6.08

Supply reported hERG current change (%, negative = inhibition) at 10uM belonging to this compound: CN(C)S(=O)(=O)c1ccc(NC(=O)CN2C(=O)NC3(CCCC3)C2=O)cc1 8.41

Supply reported hERG current change (%, negative = inhibition) at 10uM belonging to this compound: COc1ccc(Cl)cc1-n1c(C)cc(C=O)c1C 4.29

Supply reported hERG current change (%, negative = inhibition) at 10uM belonging to this compound: Br.C=CCN1C(c2ccc(OCC)cc2)=CS/C1=C(\C#N)c1nnc2n1CCCCC2 -37.9

Supply reported hERG current change (%, negative = inhibition) at 10uM belonging to this compound: CN(CC(=O)Nc1cccc(F)c1)C(=O)c1ccccc1CCc1ccccc1 3.08
